The measurements presented in this section are drawn from PubChem BioAssay (NCI).

# Test system: HCT-116 colon
# method.summary: NCI tumour cell line growth inhibition, 48 h
readout.label: GI50

Solved entries:
* Cn1cc(-c2cnc3ccc(NC(=O)Nc4ccc(F)c(Br)c4)cc3n2)cn1 | 1.87 µM
* O=c1oc2ccc(F)cc2c(=O)n1-c1ccc(F)cc1F | 2.86 µM
* COc1ccc(/C(=C2\O[C@@H]([C@H]3COC(C)(C)O3)[C@H]3OC(C)(C)O[C@@H]23)c2cc(OC)c(OC)c(OC)c2)cc1O | 4.14 µM
* CN(C)CCNc1cc(-c2ccccc2)nc2ccccc12 | 3.75 µM

Please find the next molecule below.
Exercise: What value of measured GI50 is listed for COC(=O)c1cc2c3ccccc3[nH]c2c2ncccc12 ?
Solution: 54.9 µM
